Record form. Attribute: IC50. Fill in for each entry.
studySystem: Stearoyl-CoA Desaturase (SCD) (Mus musculus, UniProt P13516)
Construct: from tissue; host or cells: liver microsomes of male ICR mice on a high-carbohydrate, low fat diet
Sequence (P13516 1-355): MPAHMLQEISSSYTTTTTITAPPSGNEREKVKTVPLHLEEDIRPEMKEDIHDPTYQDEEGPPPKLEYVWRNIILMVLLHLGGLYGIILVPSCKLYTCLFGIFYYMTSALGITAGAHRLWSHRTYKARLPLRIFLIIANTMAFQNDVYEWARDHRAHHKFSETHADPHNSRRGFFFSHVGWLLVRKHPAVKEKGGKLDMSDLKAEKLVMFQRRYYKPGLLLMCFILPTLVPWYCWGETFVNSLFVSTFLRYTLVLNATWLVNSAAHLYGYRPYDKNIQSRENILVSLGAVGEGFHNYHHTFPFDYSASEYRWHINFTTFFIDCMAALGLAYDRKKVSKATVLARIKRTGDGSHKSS
assayNotes: Stearoyl-CoA desaturase inhibition using mouse liver microsomes
Format: biochemical
runParameters: projected from residual activity at 1 and 10 μM; read-out: Projected IC50

- querySmiles: "O=C(c1ccccc1C(F)(F)F)N1CCN(c2ccc(NCCc3ccccc3)nn2)CC1"
  assayEndpoint: "IC50"
  result: "10 to 50 µM"

Report IC50 for every entry below.
1. O=C(c1ccccc1C(F)(F)F)N1CCN(c2ccc(OCCC3CC3)nn2)CC1
2. CN(CCc1ccccc1)c1ccc(N2CCN(C(=O)c3ccccc3C(F)(F)F)CC2)nn1

1 to 10 µM
10 to 50 µM
